- test_system: Prostaglandin G/H synthase 2 (Homo sapiens) (UniProt P35354)
- Sequence (P35354 whole entry): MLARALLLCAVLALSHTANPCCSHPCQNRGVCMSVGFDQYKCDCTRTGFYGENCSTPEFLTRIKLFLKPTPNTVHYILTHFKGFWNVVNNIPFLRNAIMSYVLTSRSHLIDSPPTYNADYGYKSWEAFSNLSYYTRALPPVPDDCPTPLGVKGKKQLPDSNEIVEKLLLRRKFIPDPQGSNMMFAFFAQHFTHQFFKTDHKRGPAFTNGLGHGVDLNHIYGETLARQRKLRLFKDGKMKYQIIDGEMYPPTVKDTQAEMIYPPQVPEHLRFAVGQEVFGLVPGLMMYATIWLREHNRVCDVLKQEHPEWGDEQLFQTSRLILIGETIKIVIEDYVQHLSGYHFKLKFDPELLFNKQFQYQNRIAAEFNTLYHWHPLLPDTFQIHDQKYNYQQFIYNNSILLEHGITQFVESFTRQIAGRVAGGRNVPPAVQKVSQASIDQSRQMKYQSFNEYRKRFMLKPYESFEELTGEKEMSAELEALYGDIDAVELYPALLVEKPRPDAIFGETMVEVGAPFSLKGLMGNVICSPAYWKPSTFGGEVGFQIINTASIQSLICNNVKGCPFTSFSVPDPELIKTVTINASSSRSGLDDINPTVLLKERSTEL
- test_protocol: Inhibition of human recombinant COX2 assessed as residual activity at 10 uM after 5 mins
measured_parameter: Activity (%)

Solved entries:
CCCCCCC(Sc1nc(OCCc2ccccc2)cc(OCCc2ccccc2)n1)C(=O)O (configuration not stated) = 63.8
CCCC[C@@H](Sc1nc(OCCc2ccccc2)cc(OCCc2ccccc2)n1)C(=O)O = 98.5
CCCCC(Sc1nc(OCCC2CCCCC2)cc(OCCC2CCCCC2)n1)C(=O)O (configuration not stated) = 49.5
CCCCC(Sc1nc(OCCCc2ccccc2)cc(OCCCc2ccccc2)n1)C(=O)O (configuration not stated) = 51.9
CCCCC(Sc1nc(OCCc2ccc(OC(F)(F)F)cc2)cc(OCCc2ccc(OC(F)(F)F)cc2)n1)C(=O)O (configuration not stated) = 75.8
CCCCC(Sc1nc(OCc2ccccc2)cc(OCc2ccccc2)n1)C(=O)O (configuration not stated) = 61.6

[I] O=C(O)C(Sc1nc(OCCc2ccccc2)cc(OCCc2ccccc2)n1)c1ccccc1 (configuration not stated)
[II] CCC(Sc1nc(OCCc2ccccc2)cc(OCCc2ccccc2)n1)C(=O)O (configuration not stated)
## Task Could you tell me which of I and II has the lower Activity reading? Pick one and reply with its label.
## Result II

* * *

- test_system: Peroxisome proliferator-activated receptor delta (Homo sapiens) (UniProt Q03181)
- Sequence (Q03181 whole entry, the tested form may be a part): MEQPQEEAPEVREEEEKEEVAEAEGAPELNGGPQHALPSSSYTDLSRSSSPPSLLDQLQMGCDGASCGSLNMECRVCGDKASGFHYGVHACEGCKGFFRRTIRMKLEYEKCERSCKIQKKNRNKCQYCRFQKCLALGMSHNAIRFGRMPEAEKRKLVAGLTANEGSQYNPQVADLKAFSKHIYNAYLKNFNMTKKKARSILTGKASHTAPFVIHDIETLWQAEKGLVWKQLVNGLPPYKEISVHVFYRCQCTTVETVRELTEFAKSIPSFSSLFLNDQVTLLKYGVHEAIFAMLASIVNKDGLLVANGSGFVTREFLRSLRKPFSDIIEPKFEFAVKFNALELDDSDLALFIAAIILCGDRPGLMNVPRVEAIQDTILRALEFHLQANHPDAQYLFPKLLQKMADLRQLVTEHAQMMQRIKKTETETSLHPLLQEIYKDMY
- test_protocol: Agonist activity at human PPARdelta-LBD expressed in COS7 cells co-transfected with Gal4 at 10 uM by luciferase based transactivation assay
- Format: functional, cell-based
- cond: COS-7
The source made the active and inactive calls. The calls are words filed in the database; no cut-off is given here.
measured_parameter: Activity

Solved entries:
CCCCC(Sc1nc(OCCC(C)C)cc(OCCC(C)C)n1)C(=O)O (configuration not stated) = inactive
CCCCC(Sc1nc(OCCc2ccc(C(F)(F)F)cc2)cc(OCCc2ccc(C(F)(F)F)cc2)n1)C(=O)O (configuration not stated) = inactive
CCCCC(Sc1nc(OCCc2ccc([N+](=O)[O-])cc2)cc(OCCc2ccc([N+](=O)[O-])cc2)n1)C(=O)O (configuration not stated) = inactive
CCCC[C@H](Sc1nc(OCCc2ccccc2)cc(OCCc2ccccc2)n1)C(=O)O = inactive
CCCCC(Sc1nc(OCCC2CC2)cc(OCCC2CC2)n1)C(=O)O (configuration not stated) = inactive

## Task Recorded Activity for CCCCC(Sc1nc(OCCc2ccc(OC(F)(F)F)cc2)cc(OCCc2ccc(OC(F)(F)F)cc2)n1)C(=O)O (configuration not stated) , please?
## Result inactive

## Task Recorded Activity for CCCCC(Sc1nc(OCCc2ccc(C#N)cc2)cc(OCCc2ccc(C#N)cc2)n1)C(=O)O (configuration not stated) , please?
## Result inactive

* * *

- test_system: Peroxisome proliferator-activated receptor gamma (Homo sapiens)
- Sequence (whole entry): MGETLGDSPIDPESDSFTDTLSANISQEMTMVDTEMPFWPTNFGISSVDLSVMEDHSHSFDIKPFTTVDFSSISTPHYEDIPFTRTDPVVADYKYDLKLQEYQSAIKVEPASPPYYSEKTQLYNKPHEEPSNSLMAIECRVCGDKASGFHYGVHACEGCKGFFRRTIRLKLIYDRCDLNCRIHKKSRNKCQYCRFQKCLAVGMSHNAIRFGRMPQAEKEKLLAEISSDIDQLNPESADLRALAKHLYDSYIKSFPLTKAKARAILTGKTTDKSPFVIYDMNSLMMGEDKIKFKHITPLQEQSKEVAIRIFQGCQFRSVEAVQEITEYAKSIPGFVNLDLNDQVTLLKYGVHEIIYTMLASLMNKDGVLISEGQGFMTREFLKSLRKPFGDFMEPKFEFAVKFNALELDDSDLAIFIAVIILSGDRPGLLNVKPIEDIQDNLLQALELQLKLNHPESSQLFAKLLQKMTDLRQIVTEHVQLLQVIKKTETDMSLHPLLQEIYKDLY
- test_protocol: Agonist activity at human PPARgamma-LBD expressed in COS7 cells co-transfected with Gal4 by luciferase based transactivation assay relative to pioglitazone
- Assay type: functional, cell-based
- cond: COS-7
measured_parameter: Emax (%)

Solved entries:
CCCC[C@H](Sc1nc(OCCc2ccccc2)cc(OCCc2ccccc2)n1)C(=O)O = 62
CCCCC(Sc1nc(OCCC(C)C)cc(OCCC(C)C)n1)C(=O)O (stereo not given) = 69
CCCCC(Sc1nc(OCCc2ccc(OC(F)(F)F)cc2)cc(OCCc2ccc(OC(F)(F)F)cc2)n1)C(=O)O (stereo not given) = 115
CCCCC(Sc1nc(OCCCc2ccccc2)cc(OCCCc2ccccc2)n1)C(=O)O (stereo not given) = 71
CCCCC(Sc1nc(OCCC2CCCC2)cc(OCCC2CCCC2)n1)C(=O)O (stereo not given) = 127

[A] CCCCCCC(Sc1nc(OCCc2ccccc2)cc(OCCc2ccccc2)n1)C(=O)O (stereo not given)
[B] CCCCC(Sc1nc(OCCc2ccc(C(F)(F)F)cc2)cc(OCCc2ccc(C(F)(F)F)cc2)n1)C(=O)O (stereo not given)
## Task Which item exceeds the other in Emax, A or B ? Pick one and reply with its label.
## Result B
(B: 112%, A: 59%)

[1] CCCCC(Sc1nc(OCCCCc2ccccc2)cc(OCCCCc2ccccc2)n1)C(=O)O (stereo not given)
[2] CCCCC(Sc1nc(OCCC2CC2)cc(OCCC2CC2)n1)C(=O)O (stereo not given)
## Task Could you tell me which of 1 and 2 has the lower Emax reading? Pick one and reply with its label.
## Result 1

[P] CCCCC(Sc1nc(OCCc2ccc(C#N)cc2)cc(OCCc2ccc(C#N)cc2)n1)C(=O)O (stereo not given)
[Q] O=C(O)CSc1nc(OCCc2ccccc2)cc(OCCc2ccccc2)n1
## Task Which item exceeds the other in Emax, P or Q ? Pick one and reply with its label.
## Result Q

* * *

- test_system: Peroxisome proliferator-activated receptor gamma (Homo sapiens)
- test_protocol: Agonist activity at human PPARgamma-LBD expressed in COS7 cells co-transfected with Gal4 by luciferase based transactivation assay
pEC50: −log10 of the molar value.
measured_parameter: pEC50

Solved entries:
CCCCC(Sc1nc(OCCC(C)C)cc(OCCC(C)C)n1)C(=O)O (stereo unspecified) = 4.96
CCCC[C@H](Sc1nc(OCCc2ccccc2)cc(OCCc2ccccc2)n1)C(=O)O = 4.98
CCCCC(Sc1nc(OCCc2ccc(C(F)(F)F)cc2)cc(OCCc2ccc(C(F)(F)F)cc2)n1)C(=O)O (stereo unspecified) = 4.96

[1] CCCCCCC(Sc1nc(OCCc2ccccc2)cc(OCCc2ccccc2)n1)C(=O)O (stereo unspecified)
[2] CCCCC(Sc1nc(OCCC2CC2)cc(OCCC2CC2)n1)C(=O)O (stereo unspecified)
## Task Could you tell me which of 1 and 2 has the lower pEC50 reading? Pick one and reply with its label.
## Result 1

* * *

- test_system: Prostaglandin G/H synthase 2 (Homo sapiens) (UniProt P35354)
- test_protocol: Inhibition of human recombinant COX2 assessed as residual activity at 10 uM after 5 mins
measured_parameter: Activity (%)

Solved entries:
CCCCC(Sc1nc(OCCc2ccc(C#N)cc2)cc(OCCc2ccc(C#N)cc2)n1)C(=O)O (centres undefined) = 82.6
CCCCC(Sc1nc(OCCc2ccc(C)cc2)cc(OCCc2ccc(C)cc2)n1)C(=O)O (centres undefined) = 93.3

[P] CCCCC(Sc1nc(OCCc2ccsc2)cc(OCCc2ccsc2)n1)C(=O)O (centres undefined)
[Q] CCCCC(Sc1nc(OCCc2ccc(C(F)(F)F)cc2)cc(OCCc2ccc(C(F)(F)F)cc2)n1)C(=O)O (centres undefined)
## Task Which item exceeds the other in Activity, P or Q ? Pick one and reply with its label.
## Result P

* * *

- test_protocol: Modulation of gamma-secretase-mediated cleavage of human APP expressed in CHO cells with human presenilin-1 assessed as activation of amyloid beta38 production after 24 hrs by ELISA
- Assay type: cell-based
measured_parameter: EC50 (µM)

Solved entries:
CCCCC(Sc1nc(OCCCc2ccccc2)cc(OCCCc2ccccc2)n1)C(=O)O (stereo unspecified) = 16.4
CCCCC(Sc1nc(OCCCCc2ccccc2)cc(OCCCCc2ccccc2)n1)C(=O)O (stereo unspecified) = 16.4
CCCCC(Sc1nc(OCCc2ccc(C)cc2)cc(OCCc2ccc(C)cc2)n1)C(=O)O (stereo unspecified) = 6.4
CCCCC(Sc1nc(OCCC2CCCC2)cc(OCCC2CCCC2)n1)C(=O)O (stereo unspecified) = 9
O=C(O)C(Sc1nc(OCCc2ccccc2)cc(OCCc2ccccc2)n1)c1ccccc1 (stereo unspecified) = 12.8

[I] CCCCC(Sc1nc(OCCC2CC2)cc(OCCC2CC2)n1)C(=O)O (stereo unspecified)
[II] CCCCC(Sc1nc(OCCc2ccc(OC(F)(F)F)cc2)cc(OCCc2ccc(OC(F)(F)F)cc2)n1)C(=O)O (stereo unspecified)
[III] CCCCC(Sc1nc(OCCC(C)C)cc(OCCC(C)C)n1)C(=O)O (stereo unspecified)
[IV] CCCCC(Sc1nc(OCCc2ccc(C(F)(F)F)cc2)cc(OCCc2ccc(C(F)(F)F)cc2)n1)C(=O)O (stereo unspecified)
## Task Arrange these 4 compounds in increasing order of EC50. Output spec: a listing of the labels in the requested order.
## Result IV, II, III, I
(IV: 1.8 µM, II: 5.5 µM, III: 10.9 µM, I: 24 µM)
